tested.target: SIX1-Q177R homeodomain (human, UniProt Q15475 108-198, Q177R)
Sequence: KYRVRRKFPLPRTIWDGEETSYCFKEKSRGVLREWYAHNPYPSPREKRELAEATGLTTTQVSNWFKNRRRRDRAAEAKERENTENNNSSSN
experiment.summary: universal protein binding microarray; Universal all-10-mer PBM (8x60K, AMADID 030236), 300 nM GST-tagged protein, Alexa Fluor 488 anti-GST; buffer, salt, pH and temperature not stated (as in Berger); high values mean tight binding
condition.label: protein: ivt; tags: N-terminal GST; dsDNA, one strand shown
In all, about 33,000 sequences were measured (“e-score”: median about -0.05, highest 2% from about 0.38 on). The sample holds the highest values, similar sequences and a random draw of the others, so the mix is not that of the screen.
Could you mark each record Criterion met if its binding signal falls strictly under 0.2 E-score, and Criterion not met if it equals or exceeds it?

macromolecule.sequence | label.class
GTATCACA | Criterion not met
GGAGTACC | Criterion not met
AGGGTTAC | Criterion met
GACACAAA | Criterion not met
AACGGTGC | Criterion met
CCGGGATC | Criterion met
CACATTTC | Criterion met
ACCTCACG | Criterion met
ATATACCC | Criterion not met
ACCCCATA | Criterion not met
GGAGGACA | Criterion not met
CACCCTCG | Criterion not met
CACAACTG | Criterion met
ACAATACA | Criterion met
AATGGGGT | Criterion not met
ACACCTCC | Criterion not met
CGGGTTAC | Criterion met
GCACACAC | Criterion not met
CGGAGTAC | Criterion not met
CGGCGTCA | Criterion not met
ATCAGGTG | Criterion not met
ACGTAGAG | Criterion met
GGCACCAC | Criterion not met
ATCGGCAC | Criterion met
CCCGTGTC | Criterion not met
ACTCCCCA | Criterion met
ACCGTGTC | Criterion not met
AATGGTAT | Criterion not met
ACGGGGTC | Criterion not met
ATTGAGTG | Criterion met
CCGGTTAC | Criterion met
CCTGTGTA | Criterion met
ACCGGTAT | Criterion not met
ACCCACCC | Criterion not met
ACCAGAAT | Criterion met
ATCCCCTG | Criterion met
CACCGCAC | Criterion not met
GTATGACA | Criterion not met
ACACCTCT | Criterion not met
ATCCGAGG | Criterion met
ACCGTGTG | Criterion not met
CCACACAC | Criterion not met
CGCGACCC | Criterion met
GCACAACA | Criterion met
ATGACCCC | Criterion not met
ATGGAGTC | Criterion not met
GGGTGGTA | Criterion met
ACCAGTGG | Criterion met
GTGATACA | Criterion met
GCGCACCC | Criterion not met
AACGGTGT | Criterion not met
AAGGGGGT | Criterion not met
GGGTTAAA | Criterion not met
GGCGATAC | Criterion met
CACCGGAC | Criterion not met
GACGCCCC | Criterion met
CCTACCCG | Criterion met
ACCGTGCC | Criterion met
CGCGACAC | Criterion not met
GAACCCCC | Criterion not met
ACACCTCA | Criterion not met
GGGATCCA | Criterion not met
CACGCTGC | Criterion not met
TGTATACA | Criterion not met
ACTCCTCT | Criterion met
GATACCAA | Criterion not met
AAAGGGGT | Criterion met
CCGACGCC | Criterion met
CCACACCC | Criterion not met
CCCCACGA | Criterion met
AAAGGTGT | Criterion not met
CTCCCCAA | Criterion not met
CCACACGC | Criterion not met
GACCACAC | Criterion not met
CCCCCCTA | Criterion not met
CCTACACA | Criterion met
CCCTAGTC | Criterion met
CACTGGGG | Criterion not met
AAGGGTAT | Criterion not met
GGGTTTAA | Criterion not met
CCCGTGAC | Criterion met
CCCGGTAC | Criterion not met
ATACCTCC | Criterion not met
CACCATCA | Criterion not met
CCTACACG | Criterion not met
GACACCAA | Criterion not met
AGCGACAC | Criterion not met
CCCGAGTC | Criterion met

Data credit: paper PMC10668032
